system: SF-539; assay: NCI tumour cell line growth inhibition, 48 h
The source made the active and inactive calls. No stated cut-off is given here; in the data, active = GI50 up to about 1.1 µM and inactive = higher. Non-standard residues stand in square brackets, D forms with d. Residues, ends and D or L forms follow the SMILES beside them. ξ: configuration not given here. *: point of attachment. NMeF = CN[C@@H](Cc1ccccc1)C(=O)O; ξNMeV = CNC(C(=O)O)C(C)C; Boc = CC(C)(C)OC(=O)*; OBn = c1ccc(CO*)cc1
Classes used: 1 (yes) = active, 0 (no) = inactive

compound: O=C1CCC(=O)N1CNc1cccc(NCN2C(=O)CCC2=O)c1
qualitative-label: 0 (no)
--
compound: Cc1ccc(C2=C(c3ccccc3)C(Br)(c3ccc(C)cc3)C(c3ccccc3)=C2c2ccc(C)cc2)cc1
qualitative-label: 0 (no)
--
compound: Cc1cc(O)nc2c3c(ccc12)OC(C)(C)C=C3
qualitative-label: 0 (no)
--
compound: COC(=O)c1ccc(S)c(S(=O)(=O)Nc2nc(N)n[nH]2)c1
qualitative-label: 0 (no)
--
compound: CCN(CC)CC(C)(C)C(=O)/C=C/c1ccc(C)cc1
qualitative-label: 0 (no)
--
compound: NCCc1ccc2c(c1)C(=O)c1c(O)ccc(O)c1C2=O
qualitative-label: 0 (no)
--
compound: NS(=O)(=O)c1ccc(NC(NC(=O)C(C(F)(F)F)C(F)(F)F)(C(F)(F)F)C(F)(F)F)cc1
qualitative-label: 0 (no)
--
compound: COC1=C(NC(C)=O)C(=O)c2nc3n(c2C1=O)CCC3
qualitative-label: 0 (no)
--
compound: C=C(C)C1Cc2c(cc3c(c2O)c(=O)c2ccccc2n3C)O1 (stereo not given)
qualitative-label: 0 (no)
--
compound: COC(=O)Cc1cc(O)c(C/C=C(\C)CC/C=C(\C)C(O)C(=O)C=C(C)C)cc1O (stereo not given)
qualitative-label: 0 (no)
--
compound: CC(=O)O[C@H]1CC[C@@]2(C)C(=CC[C@@H]3C2CC[C@]2(C)C(=O)NC(=O)CC32)C1 (stereo not given in full)
qualitative-label: 0 (no)
--
compound: c1ccc2nc3c(nc2c1)sc1nc2ccccc2n13
qualitative-label: 0 (no)
--
compound: COc1ccc(NC(=O)NNS(=O)(=O)c2ccc(C)cc2)cc1
qualitative-label: 0 (no)
--
compound: CC1C=CC(=O)C(n2cc(F)c(=O)[nH]c2=O)O1 (stereo not given)
qualitative-label: 0 (no)
--
compound: Cc1ccccc1N(C)S(=O)(=O)c1ccccc1[N+](=O)[O-]
qualitative-label: 0 (no)
--
compound: CCN(CC)CCCOc1cc2c(cc1OC)C(=O)N1CCC[C@H]1C=N2
qualitative-label: 0 (no)
--
compound: c1ccc(C2C(=P(c3ccccc3)(c3ccccc3)c3ccccc3)P=PC2[P+](c2ccccc2)(c2ccccc2)c2ccccc2)cc1.c1ccc([B-](c2ccccc2)(c2ccccc2)c2ccccc2)cc1 (stereo not given)
qualitative-label: 1 (yes)
--
compound: C=C1C(=O)O[C@@H]2/C=C(C)/C=C\[C@@H]3O[C@@]3(C)C[C@@H](O)C12 (stereo not given in full)
qualitative-label: 0 (no)
--
compound: CC1=C2CC(C)(C)CC(=O)C2(C)CCC1=O (stereo not given)
qualitative-label: 0 (no)
--
compound: CC1CCCCc2nc3c(c(=O)n21)CCCC3 (stereo not given)
qualitative-label: 0 (no)
--
compound: CC(=N\N)/C(C)=N/N=C(C)/C(C)=N/N
qualitative-label: 0 (no)
--
compound: COC1=CC(=O)c2ccccc2C1(CCC=C(C)C)C1=NC(C)(C)CO1 (stereo not given)
qualitative-label: 0 (no)
--
compound: Cc1cc(C(C)(C)C)cc(Cc2cc(C(C)(C)C)cc(Cc3cc(C(C)(C)C)cc(C)c3O)c2O)c1O
qualitative-label: 0 (no)
--
compound: Clc1cc2n[se]nc2cc1Cl
qualitative-label: 0 (no)
--
compound: O=C1c2ccccc2C2=Cc3ccccc3C(O)N12 (stereo not given)
qualitative-label: 0 (no)
--
compound: Cc1cc(Cl)ccc1/N=C1/NC(=O)C(CC(=O)Nc2cccc(C)c2C)S1 (stereo not given)
qualitative-label: 0 (no)
--
compound: Cc1ccc(C)c(NC(=O)CC/C(=N\NC(=O)C(N)=O)C(C)C(=O)c2ccc(O)cc2)c1 (stereo not given)
qualitative-label: 0 (no)
--
compound: CN(OC(=O)CC(=O)c1ccccc1)C(=O)Cc1ccccc1
qualitative-label: 0 (no)
--
compound: C=CCn1c(=S)sc2c(O)ncnc21
qualitative-label: 0 (no)
--
compound: S=C(NCc1ccccn1)N/N=C/c1ccccn1
qualitative-label: 1 (yes)
--
compound: CC(C)C(C(=O)N1CCC[C@@H]1C(=O)OCc1ccccc1)N(C)C(=O)C(C(C)C)N(C)C(=O)[C@H](Cc1ccccc1)N(C)C(=O)[C@H](NC(=O)OC(C)(C)C)C(C)C (stereo not given in full) (Boc-[dV][NMeF][ξNMeV][ξNMeV][dP]-OBn)
qualitative-label: 0 (no)
--
compound: C[C@H](Nc1nc(N)c(N=O)c(=O)n1C)C(=O)O
qualitative-label: 0 (no)
--
compound: CCC1=CCN(c2cc(C)ccn2)OC1c1ccc(OC)cc1 (stereo not given)
qualitative-label: 0 (no)
--
compound: O=C(CCCN1CCC2(CC1)/C(=N/C1CCCCC1)NC(=O)N2c1ccccc1)c1ccc(F)cc1
qualitative-label: 0 (no)
--
compound: COc1ccn(CC(=O)c2cc3ccccc3[nH]2)c(=O)n1
qualitative-label: 0 (no)
--
compound: COC(=O)/C(C#N)=C1\CCC(O)N1C (stereo not given)
qualitative-label: 0 (no)
--
compound: CC(C)CC(NC(=O)C(O)C(N)Cc1ccccc1)C(=O)O (stereo not given)
qualitative-label: 0 (no)
--
compound: Cc1ccccc1NC(=O)CC(=O)N1N=C(N2c3ccccc3Sc3ccccc32)CC1c1ccccc1 (stereo not given)
qualitative-label: 0 (no)
--
compound: COC1/C=C/C(C)C(C(C)C(OC)C(C)CCC(=O)C(C)C(C/C=C/N(C)C=O)OC)OC(=O)C=CC2OC2(C)CC(OC)C(OC)C2=CC(=O)O[C@@H](C(C)C(OC)CC(OC)/C=C/C(C)C(O)C1)[C@H]2O (stereo not given in full)
qualitative-label: 1 (yes)
--
compound: CC[C@@]1(O)C(=O)OCc2c1cc1n(c2=O)Cc2c-1nc1ccccc1c2/C=N\NC(=O)C(N)=O
qualitative-label: 1 (yes)

---

tested on: K562; assay: NCI tumour cell line growth inhibition, 48 h
Active and inactive are the calls of the source. Rule as the data show it: active = GI50 up to about 1.1 µM and inactive = higher.
# Lookup of reported GI50 keyed by entry

compound: CC(=O)Oc1c2oc3ccc(Cl)cc3c(=O)c2c(O)c2ccsc12
target-of-assay: K562
GI50: 60.7 µM (inactive)
--
compound: O=C1NC(=O)/C(=C/c2ccc(S(=O)(=O)N/N=C/c3ccccc3)cc2)N1
target-of-assay: K562
GI50: > 100 µM (inactive)
--
compound: COc1nc(O)c(N)c(NC2OC(CO)C(O)C(O)C2O)n1 (stereo unspecified)
target-of-assay: K562
GI50: > 90.8 µM (inactive)
--
compound: O=C(O)c1nn(-c2ccccc2)nc1-c1nn(-c2ccccc2)nc1C(=O)O
target-of-assay: K562
GI50: > 100 µM (inactive)
--
compound: COc1cc(/C=C/C(=O)Oc2ccc(NC(C)=O)cc2)ccc1C(=O)OCc1ccccc1
target-of-assay: K562
GI50: > 100 µM (inactive)
--
compound: COC(=O)/C(C#N)=C1\CCC(O)N1C (stereo unspecified)
target-of-assay: K562
GI50: > 100 µM (inactive)

---

Listed compounds paired with reported GI50
test system: EKVX; assay: NCI tumour cell line growth inhibition, 48 h
Active and inactive are the calls of the source. Rule as the data show it: active = GI50 up to about 1.1 µM and inactive = higher.

compound: NCCc1ccc2c(c1)C(=O)c1c(O)ccc(O)c1C2=O
GI50: 2.45 µM (inactive)

compound: Brc1ccc2c(c1)-c1nc3c(cc1CC2)CCc1ccc(Br)cc1-3
GI50: > 100 µM (inactive)

compound: O=C1C(c2c(O)[nH]c3ccc([N+](=O)[O-])cc23)=Nc2ccccc21
GI50: > 100 µM (inactive)

compound: Nc1nc(=S)[nH]c2nc3c(c(-c4ccccc4)c12)CCCC3
GI50: 50 µM (inactive)

compound: c1ccc2nc3c(nc2c1)sc1nc2ccccc2n13
GI50: > 100 µM (inactive)

compound: O=P(O)(OCC(O)O)OCC(O)O
GI50: > 100 µM (inactive)

compound: CC1CCC2(CC1)NC1=C(CC(C)CC1)C1=C2CC(C)CC1 (configuration not stated)
GI50: 39.1 µM (inactive)

compound: O=C1c2ccccc2C2=Cc3ccccc3C(O)N12 (configuration not stated)
GI50: > 100 µM (inactive)

compound: COC(=O)c1ccc(S)c(S(=O)(=O)Nc2nc(N)n[nH]2)c1
GI50: > 100 µM (inactive)

compound: COC(=O)C1C2CCCN2OC1(C)CO (configuration not stated)
GI50: > 100 µM (inactive)

compound: CC1C2CC(CC2N)C1(C)C (configuration not stated)
GI50: > 100 µM (inactive)

compound: CCN(CC)CCCOc1cc2c(cc1OC)C(=O)N1CCC[C@H]1C=N2
GI50: 68.4 µM (inactive)

Every entry's value here was drawn from ChEMBL document CHEMBL1201862.
